Reported IC50 values are given for each entry in this list.
# Test Target: human LPA1 (Homo sapiens)
# Construct: expressed in transfected cells; host or cells: Chinese hamster ovary (CHO) cells
# Experiment: LPA1 functional antagonist assay (LPA-induced calcium flux)
# Assay type: cell-based
# Test Conditions: CHO cells overexpressing human LPA1; calcium flux induced by 10 nM LPA; read-out: hLPA1 IC50
Recorded Endpoint: IC50

Compound | Measured Value
Cc1nc(-c2nnn(C)c2CNc2nccc(C(C)C)n2)ccc1OC[C@@H]1CC[C@H]1C(=O)O (racemic) [Example 23] | 117 nM
Cc1noc(-c2ccc(OCC34CC(C(=O)O)(C3)C4)cc2)c1COC(=O)N(C)C1CCCC1 | 604 nM
Cc1nc(-c2nnn(C)c2COc2cc(C3CC3)ncn2)ccc1OC[C@@H]1CC[C@H]1C(=O)O (racemic) | 83 nM
CCCN(C)C(=O)OCc1c(-c2ccc(OC[C@@H]3CC[C@H]3C(=O)O)c(C)n2)nnn1C (racemic) | 275 nM

----------
Reported IC50 values are given for each entry in this list.
# Test Target: human LPA1 (Homo sapiens, UniProt Q92633)
# Construct: expressed in transfected cells; host or cells: Chinese hamster ovary (CHO) cells
# Sequence (Q92633 whole entry): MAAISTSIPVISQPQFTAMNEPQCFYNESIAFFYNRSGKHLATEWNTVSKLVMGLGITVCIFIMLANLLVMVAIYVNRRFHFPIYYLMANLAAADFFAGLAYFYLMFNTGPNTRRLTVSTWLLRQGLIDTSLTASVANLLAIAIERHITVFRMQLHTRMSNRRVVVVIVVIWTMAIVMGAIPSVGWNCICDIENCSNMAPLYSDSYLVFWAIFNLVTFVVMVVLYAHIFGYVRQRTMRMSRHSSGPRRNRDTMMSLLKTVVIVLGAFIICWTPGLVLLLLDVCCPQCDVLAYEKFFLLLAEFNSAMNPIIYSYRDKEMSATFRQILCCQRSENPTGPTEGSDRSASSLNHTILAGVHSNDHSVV
# Experiment: LPA1 functional antagonist assay (LPA-induced calcium flux)
# Format: cell-based
# Test Conditions: CHO cells overexpressing human LPA1; calcium flux induced by 10 nM LPA; read-out: hLPA1 IC50

Compound | Test Target | U | IC50
CCc1cc(OCc2c(-c3ccc(OC[C@H]4CC[C@@H]4C(=O)O)c(C)n3)nnn2C)ncn1 (single isomer, unassigned) [Example 13] | human LPA1 (Homo sapiens, UniProt Q92633) | nM | 28
Cc1nc(-c2nnn(C)c2COC(=O)N(C)CC2CCC2)ccc1OCC12CCC(C(=O)O)(C1)C2 [Example 57] | human LPA1 (Homo sapiens, UniProt Q92633) | nM | 82
Cc1nc(-c2nnn(C)c2COc2cc(OC3CC3)ncn2)ccc1OC[C@@H]1CC[C@H]1C(=O)O (racemic) [Example 17] | human LPA1 (Homo sapiens, UniProt Q92633) | nM | 66
Cn1nnc(-c2ccc(OC[C@@H]3CC[C@H]3C(=O)O)cn2)c1CNc1nccc(-c2ccccn2)n1 (single isomer, unassigned) [Example 28] | human LPA1 (Homo sapiens, UniProt Q92633) | nM | 67
Cc1nc(-c2nnn(C)c2COC(=O)NC2CCCCC2)ccc1OC[C@@H]1CC[C@H]1C(=O)O (racemic) [Example 45] | human LPA1 (Homo sapiens, UniProt Q92633) | nM | 435
Cc1nc(-c2nnn(C)c2CNc2nccc(C(C)C)n2)ccc1OC[C@@H]1CC[C@H]1C(=O)O (single isomer, unassigned) [Example 24] | human LPA1 (Homo sapiens, UniProt Q92633) | nM | 1150
Cc1noc(-c2ccc(OC[C@@H]3CC[C@H]3C(=O)O)cn2)c1CNc1nccc(-c2ccccn2)n1 (racemic) [Example 2] | human LPA1 (Homo sapiens, UniProt Q92633) | nM | 15.4
Cc1noc(-c2ccc(OC[C@H]3CC[C@@H]3C(=O)O)cn2)c1CNc1nccc(-c2ccccn2)n1 (single isomer, unassigned) [Example 4] | human LPA1 (Homo sapiens, UniProt Q92633) | nM | 14
Cn1nnc(-c2ccc(OC[C@@H]3CC[C@H]3C(=O)O)cn2)c1CNc1nccc(-c2ccccn2)n1 (racemic) [Example 27] | human LPA1 (Homo sapiens, UniProt Q92633) | nM | 49
Cc1nc(-c2nnn(C)c2CNC(=O)OCC(C)C)ccc1OC[C@@H]1CC[C@H]1C(=O)O (racemic) [Example 41] | human LPA1 (Homo sapiens, UniProt Q92633) | nM | 3750
Cc1nc(-c2nnn(C)c2COC(=O)N(C)C2CCCC2)ccc1OC[C@@H]1CC[C@H]1C(=O)O (racemic) [Example 47] | human LPA1 (Homo sapiens, UniProt Q92633) | nM | 23
Cc1nc(-c2nnn(C)c2COC(=O)N(C)CC2CCC2)ccc1O[C@H]1C[C@@H](C(=O)O)C1 [Example 10] | human LPA1 (Homo sapiens, UniProt Q92633) | nM | 789

----------
# Test Target: human LPA1 (Homo sapiens, UniProt Q92633)
# Construct: expressed in transfected cells; host or cells: Chinese hamster ovary (CHO) cells
# Experiment: LPA1 functional antagonist assay (LPA-induced calcium flux)
# Type: cell-based
pIC50: −log10 of the molar value.

Structure String | pIC50
CN(CC1CCC1)C(=O)OCc1c(-c2ccc(OCC34CC(C(=O)O)(C3)C4)cn2)nnn1C | 6.37

----------
# Test Target: human LPA1 (Homo sapiens, UniProt Q92633)
# Construct: expressed in transfected cells; host or cells: Chinese hamster ovary (CHO) cells
# Experiment: LPA1 functional antagonist assay (LPA-induced calcium flux)
# Assay type: cell-based
# Test Conditions: CHO cells overexpressing human LPA1; calcium flux induced by 10 nM LPA; read-out: hLPA1 IC50
# Procedure: The effectiveness of compounds of the present invention as LPA1 inhibitors can be determined in an LPA1 functional antagonist assay as follows: The cells were then equilibrated to room temperature for 30 minutes before the assay. […] IC50 values were determined by fitting data to a 4-parameter logistic equation (GraphPad Prism, San Diego CA).

Compound | IC50 [nM]
Cc1nc(-c2nnn(C)c2CNC(=O)OCc2ccccc2)ccc1OC[C@@H]1CC[C@H]1C(=O)O (racemic) [Example 32] | 70
Cc1nc(-c2nnn(C)c2COC(=O)N(C)CC2CCC2)ccc1OCC12CC(C(=O)O)(C1)C2 [Example 52] | 372
CCc1cc(OCc2c(-c3ccc(OC[C@@H]4CC[C@H]4C(=O)O)c(C)n3)nnn2C)ncn1 (single isomer, unassigned) [Example 12] | 77
Cc1nc(-c2nnn(C)c2CNc2noc(CCC(C)C)n2)ccc1OCC12CC(C(=O)O)(C1)C2 [Example 55] | 1980
CCCCN(C)C(=O)OCc1c(-c2ccc(OC[C@@H]3CC[C@H]3C(=O)O)c(C)n2)nnn1C (racemic) [Example 50] | 22
Cc1nc(-c2nnn(C)c2Cn2nnc(CC3CC3)n2)ccc1OC[C@@H]1CC[C@H]1C(=O)O (racemic) [Example 36] | 86
Cc1nc(-c2nnn(C)c2COC(=O)N(C)CC2CC2)ccc1OC[C@@H]1CC[C@H]1C(=O)O (racemic) [Example 31] | 184

----------
# Test Target: human LPA1 (Homo sapiens, UniProt Q92633)
# Construct: expressed in transfected cells; host or cells: Chinese hamster ovary (CHO) cells
# Experiment: LPA1 functional antagonist assay (LPA-induced calcium flux)
# Type: cell-based
# Test Conditions: CHO cells overexpressing human LPA1; calcium flux induced by 10 nM LPA; read-out: hLPA1 IC50
pIC50: −log10 of the molar value.
Reported pIC50 values are given for each entry in this list.
Recorded Endpoint: pIC50

Molecule | Test Target | Recorded Endpoint | Measured Value
Cc1nc(-c2onc(C)c2COC(=O)N(C)C2CCCC2)ccc1OCC12CCC(C(=O)O)(C1)C2 | human LPA1 (Homo sapiens, UniProt Q92633) | pIC50 | 7.66
Cc1noc(-c2ccc(OC[C@@H]3CC[C@H]3C(=O)O)cc2)c1COC(=O)N(C)C1CCCC1 (racemic) | human LPA1 (Homo sapiens, UniProt Q92633) | pIC50 | 6.73
Cc1nc(-c2nnn(C)c2COC(=O)N(C)CC2CCC2)ccc1OC[C@@H]1CC[C@H]1C(=O)O (racemic) [Example 6] | human LPA1 (Homo sapiens, UniProt Q92633) | pIC50 | 7.57
Cc1nc(-c2nnn(C)c2COC(=O)N(C)CC2CCC2)ccc1OC[C@H]1CC[C@@H]1C(=O)O (single isomer, unassigned) | human LPA1 (Homo sapiens, UniProt Q92633) | pIC50 | 8.22
CCC(C)Cc1nc(NCc2c(-c3ccc(OCC45CC(C(=O)O)(C4)C5)c(C)n3)nnn2C)no1 (racemic) | human LPA1 (Homo sapiens, UniProt Q92633) | pIC50 | 6.23
Cc1nc(-c2nnn(C)c2Cn2nnc(CC3CC3)n2)ccc1OC[C@H]1CC[C@@H]1C(=O)O (single isomer, unassigned) | human LPA1 (Homo sapiens, UniProt Q92633) | pIC50 | 6.60
Cc1nc(-c2nnn(C)c2COc2noc(C(C)C)n2)ccc1OC[C@@H]1CC[C@H]1C(=O)O (racemic) | human LPA1 (Homo sapiens, UniProt Q92633) | pIC50 | 7.60

----------
# Test Target: human LPA1 (Homo sapiens, UniProt Q92633)
# Construct: expressed in transfected cells; host or cells: Chinese hamster ovary (CHO) cells
# Experiment: LPA1 functional antagonist assay (LPA-induced calcium flux)
# Type: cell-based
# Test Conditions: CHO cells overexpressing human LPA1; calcium flux induced by 10 nM LPA; read-out: hLPA1 IC50
Reported log10(IC50) values are given for each entry in this list.
Recorded Endpoint: log10(IC50) (log10 of the value in nM)

Compound | log10(IC50)
COc1cc(OCc2c(-c3ccc(OC[C@@H]4CC[C@H]4C(=O)O)c(C)n3)nnn2C)ncn1 (racemic) | 2.08
Cc1nc(-c2nnn(C)c2NC(=O)OCC(C)C)ccc1OC[C@@H]1CC[C@H]1C(=O)O (racemic) | 3.08
Cc1nc(-c2nnn(C)c2COC(=O)N(C)CC2CCC2)ccc1OC[C@@H]1CC[C@H]1C(=O)O (single isomer, unassigned) [Example 7] | 1.41
Cc1nc(-c2nnn(C)c2COC(=O)N(C)CC(C)C)ccc1OC[C@@H]1CC[C@H]1C(=O)O (racemic) | 2.37
Cc1nc(-c2nnn(C)c2CNc2nccc(-c3ccccc3)n2)ccc1OC[C@@H]1CC[C@H]1C(=O)O (racemic) | 1.69
Cc1noc(-c2ccc(OC[C@@H]3CC[C@H]3C(=O)O)cn2)c1CNc1nccc(-c2ccccn2)n1 (single isomer, unassigned) [Example 3] | 0.85
Cc1nc(-c2nnn(C)c2CNc2nccc(Oc3ccccc3)n2)ccc1OC[C@@H]1CC[C@H]1C(=O)O (racemic) | 2.17
Cc1nc(-c2nnn(C)c2CNc2nccc(-c3ccccn3)n2)ccc1OC[C@@H]1CC[C@H]1C(=O)O (racemic) | 1.75
Cc1nc(-c2nnn(C)c2COC(=O)N(C)C2CCC2)ccc1OC[C@@H]1CC[C@H]1C(=O)O (racemic) | 1.86
Cc1nc(-c2nnn(C)c2CNC(=O)OCCC2CC2)ccc1OC[C@@H]1CC[C@H]1C(=O)O (racemic) | 2.51
CCOc1ccnc(NCc2c(-c3ccc(OC[C@@H]4CC[C@H]4C(=O)O)c(C)n3)nnn2C)n1 (racemic) | 1.38
CCc1ccnc(OCc2c(-c3ccc(OC[C@@H]4CC[C@H]4C(=O)O)c(C)n3)nnn2C)n1 (racemic) | 2.58
Cn1nnc(-c2ccc(OC[C@H]3CC[C@@H]3C(=O)O)cn2)c1CNc1nccc(-c2ccccn2)n1 (single isomer, unassigned) | 2.27
Cc1nc(-c2nnn(C)c2COc2noc(C3CC3)n2)ccc1OC[C@@H]1CC[C@H]1C(=O)O (racemic) | 2.11
